# Test system: ACHN renal
# experimentalProtocol: NCI-60 one-dose screen, 48 h
# statedConditions: 10 µM unless noted
# Experimental: Growth inhibition of the ACHN human tumor cell line is measured as a screen for anti-cancer activity. Cells are grown in 96 well plates and exposed to the test compound for 48 hours. Compounds are tested at a single concentration, which is 10^-5 M for most compounds. The reported endpoint is percent growth (GI% or GIPRCNT), where numbers from 0 - 100% represent growth inhibition, and numbers from -100% - 0 represent cell death. For example, a value of 40 represents 60% growth inhibition. […]
About 83,000 compounds went through this panel and 20% of them were active in at least one assay; those are over-represented in the sample as a whole. Activity calls are given as the source filed them. Rule for the calls: active = growth percent below 10; inactive = the rest.
Respond with a class label; see active, inactive

Could you check what this test reported for `Nc1nc2ccc(-c3nc4ccc5[nH]ncc5c4c4c3CCC4)cc2s1` ?
inactive

Could you check what this test reported for `O=c1c2c3c(sc2n2c(CCl)nnc2n1Cc1ccccc1)CCCC3` ?
active

Could you check what this test reported for `CC1(C)CC(=O)C(c2c(-c3ccccc3)[nH]c3[nH]c(=S)[nH]c(=O)c23)=C(O)C1` ?
inactive

Could you check what this test reported for `O=C1c2cc3c(cc2-c2c1c1cc(Cl)c(Cl)cc1c(=O)n2C[C@H](O)CO)OCO3` ?
active

Could you check what this test reported for `CC/C=C\C[C@H](F)C/C=C1/C(=O)C=C[C@@H]1C/C=C\CCCC(=O)OC` ?
active

Could you check what this test reported for CCCCCCCCCCCCCCCCCCNC(=O)[C@H]1CSC(c2ccc(F)c(OC)c2)N1 (some centres undefined) ?
inactive

Could you check what this test reported for CCN(CC)CC(C)Nc1ccc([N+](=O)[O-])c2sc3ccccc3c(=O)c12 (centres undefined) ?
active

Could you check what this test reported for CC1(C)OCC2OC3(C(=O)O)OC(C)(C)OC3C2O1 (centres undefined) ?
inactive

Could you check what this test reported for `C[C@@H]1CC[C@@H]2[C@@H]1[C@H](OC(=O)/C=C/c1ccccc1)[C@]1(C3CCCCC3)C[C@@H](OC(=O)CO)[C@@]2(C)O1` ?
inactive

Could you check what this test reported for `O=[N+]([O-])c1cccc(-c2nc3sccn3c2-c2ccnc(NCCNS(=O)(=O)c3ccc(C(F)(F)F)cc3)n2)c1` ?
inactive

Could you check what this test reported for `Cc1cc(=O)oc2cc(Oc3nc(-c4ccc(Cl)cc4)cn4c(-c5ccc(Cl)cc5)cnc34)ccc12` ?
inactive

Could you check what this test reported for `CCN(CC)Cc1cc(Nc2c3ccccc3nc3cc(Cl)ccc23)ccc1O` ?
active

Could you check what this test reported for `COc1c2ccccc2c(OC)c2[nH]c(=O)ccc12` ?
inactive

Could you check what this test reported for `CCCCNP1(NCCCC)=NP(NCCCC)(NCCCC)=NP(NCCCC)(NCCCC)=NP(NCCCC)(NCCCC)=N1` ?
inactive

Could you check what this test reported for O=C1Nc2ccc(Br)cc2C12CC(c1ccccc1)=NN2 (centres undefined) ?
inactive

Could you check what this test reported for `CN(C)CCCC(=O)Nc1ccc(Cn2nnc3c2C(=O)c2nnn(Cc4ccc(NC(=O)CCCN(C)C)cc4)c2C3=O)cc1` ?
inactive

Could you check what this test reported for Cc1cc2c(cc1C)NC1=C(N2)OC(c2c3ccccc3cc3ccccc23)C1=O (centres undefined) ?
inactive

Could you check what this test reported for C=C1CC2(OC1=O)C(=O)N(CCCCCCCCCCCCN1C(=O)C3(CC(=C)C(=O)O3)c3ccccc31)c1ccccc12 (centres undefined) ?
inactive

Could you check what this test reported for `COc1ccc(/C=N\NC(=O)CN2CCN(c3cc4c(cc3F)c(=O)c(C(=O)N/N=C/c3ccc(OC)cc3)cn4C3CC3)CC2)cc1` ?
inactive

Could you check what this test reported for `O=C1c2cc3c(cc2-c2c1c1cc(Cl)c(Cl)cc1c(=O)n2CCCn1ccnc1)OCO3` ?
active

Could you check what this test reported for C=C1CC2(OC1=O)C(=O)N(CCCCCCCN1C(=O)C3(CC(=C)C(=O)O3)c3ccccc31)c1ccccc12 (centres undefined) ?
inactive

Could you check what this test reported for `COC(/C=C/c1ccc([N+](=O)[O-])cc1)OC` ?
inactive

Could you check what this test reported for `CCCCCCCCCCCCCCCC[N+]1(CC)CCCC1` ?
active

Could you check what this test reported for `CCC(=O)Oc1ccc(/C(=C(\C)c2ccccc2)c2ccc(OCCN(CC)CC)cc2)cc1` ?
inactive

Could you check what this test reported for `COCCCNc1nc(NC(=O)c2ccc(F)cc2C)cc(-c2cccnc2)n1` ?
inactive

Could you check what this test reported for `CS(=O)(=O)c1ccc(-c2cnc3ccc(-c4cccc(S(C)(=O)=O)c4)nn23)cc1` ?
inactive

Could you check what this test reported for CCN(CC)CCCC(C)NCCCNc1cccc2cccnc12 (centres undefined) ?
inactive

Could you check what this test reported for `CCOC(=O)c1cnc2ccc(OC)cc2c1Nc1cccc(S(=O)(=O)NC)c1` ?
inactive

Could you check what this test reported for `Cc1cccc(NC(=O)c2sc3nc4c(cc3c2N)C(=O)CCC4)c1` ?
inactive

Could you check what this test reported for `Oc1ccc2c(=S)cc(-c3ccc(Br)cc3)oc2c1O` ?
inactive

Could you check what this test reported for `CC/C=C\C[C@H](O)C/C=C1/C(=O)C=C[C@@H]1C/C=C\CCCC(=O)OC(C)C` ?
active

Could you check what this test reported for `C[C@@]1(N2C(=O)OC[C@@H]2c2ccccc2)C(=O)N([C@H](CC(=O)N2CCC(N3CCCCC3)CC2)C(=O)NCc2cccc(C(F)(F)F)c2)[C@@H]1/C=C/c1ccccc1` ?
inactive

Could you check what this test reported for `Cn1cc(-c2csc(-c3cn(C)c4ncccc34)n2)c2ccccc21` ?
inactive

Could you check what this test reported for CN1Cc2c(cc(CN3CCCCC3)n2C)C(c2ccc(Br)cc2)C1 (centres undefined) ?
inactive

Could you check what this test reported for `CCOC(=O)Cc1cnn(C)c1NC(=O)c1ccc(Cl)cc1NC(C)=O` ?
inactive

Could you check what this test reported for `COc1ccc(CNc2nccnn2)cc1` ?
inactive

Could you check what this test reported for `COc1cccc(/C=C\C(=O)c2ccccc2)c1` ?
inactive

Could you check what this test reported for `COc1ccc(-c2nn(-c3ccccc3)cc2/C=C/C(=O)OCc2cn(-c3ccc(F)c(Cl)c3)nn2)cc1` ?
inactive

Could you check what this test reported for C=CC[N+]1(CC)CCN=C1CCCCCCCCCCCCCCCCC (centres undefined) ?
active
